Sourced from patent US20220177594A1

- target: T1, ANTIBODY EXPRESSION CONTROL
- T1 construct: also called mouse anti-canine antibody (capture reagent of the expression control ELISA)
- protocol.notes: SPR Biacore, expression control
readout.kind: pKd
Notebook: values listed as pKd are -log10 of the concentration (mol/L).

Mu_02D09_VL (SEQ ID NO: 33)_Q27A (antibody, V domains shown) VH: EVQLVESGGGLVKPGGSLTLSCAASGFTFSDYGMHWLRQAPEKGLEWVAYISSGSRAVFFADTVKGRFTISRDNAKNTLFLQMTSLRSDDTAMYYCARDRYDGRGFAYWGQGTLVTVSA VL: DIVLTQSPATLSVTPGDSVSLSCRASASISNNLHWYQQTSHESPRLLITYASQSISGIPSRFSGSGSGTDFTLSINSVETEDFGMYFCQQSNSWPLTFGAGTKLELKR :: 8.92

Here is the next item to consider.
Field pKd (entry Mu_02D09_VL (SEQ ID NO: 33)_S56A (antibody, V domains shown) VH: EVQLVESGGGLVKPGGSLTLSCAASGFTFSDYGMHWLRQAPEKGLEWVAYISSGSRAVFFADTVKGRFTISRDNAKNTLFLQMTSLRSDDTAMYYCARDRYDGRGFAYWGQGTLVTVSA VL: DIVLTQSPATLSVTPGDSVSLSCRASQSISNNLHWYQQTSHESPRLLITYASQSIAGIPSRFSGSGSGTDFTLSINSVETEDFGMYFCQQSNSWPLTFGAGTKLELKR ) reads 9.07
